# studySystem: RyR1 (Sus scrofa)
# Construct: from tissue; host or cells: porcine longissimus dorsi muscle, heavy SR vesicles
# assay: [3H]ryanodine binding to skeletal SR (HSR) vesicles
# Assay type: biochemical, pig
# measurementContext: EC50, [3H]ryanodine binding, skeletal HSR, [Ca2+] 30 nM, Table S4
pEC50: −log10 of the molar value.
quantity: pEC50

1) C[C@H](N)[C@H](O)c1ccc(O)c(O)c1 [corbadrine]
7.70

* * *

# studySystem: RyR1 (Sus scrofa, UniProt P16960)
# Construct: from tissue; host or cells: porcine longissimus dorsi muscle, heavy SR vesicles
# Sequence (P16960 whole entry): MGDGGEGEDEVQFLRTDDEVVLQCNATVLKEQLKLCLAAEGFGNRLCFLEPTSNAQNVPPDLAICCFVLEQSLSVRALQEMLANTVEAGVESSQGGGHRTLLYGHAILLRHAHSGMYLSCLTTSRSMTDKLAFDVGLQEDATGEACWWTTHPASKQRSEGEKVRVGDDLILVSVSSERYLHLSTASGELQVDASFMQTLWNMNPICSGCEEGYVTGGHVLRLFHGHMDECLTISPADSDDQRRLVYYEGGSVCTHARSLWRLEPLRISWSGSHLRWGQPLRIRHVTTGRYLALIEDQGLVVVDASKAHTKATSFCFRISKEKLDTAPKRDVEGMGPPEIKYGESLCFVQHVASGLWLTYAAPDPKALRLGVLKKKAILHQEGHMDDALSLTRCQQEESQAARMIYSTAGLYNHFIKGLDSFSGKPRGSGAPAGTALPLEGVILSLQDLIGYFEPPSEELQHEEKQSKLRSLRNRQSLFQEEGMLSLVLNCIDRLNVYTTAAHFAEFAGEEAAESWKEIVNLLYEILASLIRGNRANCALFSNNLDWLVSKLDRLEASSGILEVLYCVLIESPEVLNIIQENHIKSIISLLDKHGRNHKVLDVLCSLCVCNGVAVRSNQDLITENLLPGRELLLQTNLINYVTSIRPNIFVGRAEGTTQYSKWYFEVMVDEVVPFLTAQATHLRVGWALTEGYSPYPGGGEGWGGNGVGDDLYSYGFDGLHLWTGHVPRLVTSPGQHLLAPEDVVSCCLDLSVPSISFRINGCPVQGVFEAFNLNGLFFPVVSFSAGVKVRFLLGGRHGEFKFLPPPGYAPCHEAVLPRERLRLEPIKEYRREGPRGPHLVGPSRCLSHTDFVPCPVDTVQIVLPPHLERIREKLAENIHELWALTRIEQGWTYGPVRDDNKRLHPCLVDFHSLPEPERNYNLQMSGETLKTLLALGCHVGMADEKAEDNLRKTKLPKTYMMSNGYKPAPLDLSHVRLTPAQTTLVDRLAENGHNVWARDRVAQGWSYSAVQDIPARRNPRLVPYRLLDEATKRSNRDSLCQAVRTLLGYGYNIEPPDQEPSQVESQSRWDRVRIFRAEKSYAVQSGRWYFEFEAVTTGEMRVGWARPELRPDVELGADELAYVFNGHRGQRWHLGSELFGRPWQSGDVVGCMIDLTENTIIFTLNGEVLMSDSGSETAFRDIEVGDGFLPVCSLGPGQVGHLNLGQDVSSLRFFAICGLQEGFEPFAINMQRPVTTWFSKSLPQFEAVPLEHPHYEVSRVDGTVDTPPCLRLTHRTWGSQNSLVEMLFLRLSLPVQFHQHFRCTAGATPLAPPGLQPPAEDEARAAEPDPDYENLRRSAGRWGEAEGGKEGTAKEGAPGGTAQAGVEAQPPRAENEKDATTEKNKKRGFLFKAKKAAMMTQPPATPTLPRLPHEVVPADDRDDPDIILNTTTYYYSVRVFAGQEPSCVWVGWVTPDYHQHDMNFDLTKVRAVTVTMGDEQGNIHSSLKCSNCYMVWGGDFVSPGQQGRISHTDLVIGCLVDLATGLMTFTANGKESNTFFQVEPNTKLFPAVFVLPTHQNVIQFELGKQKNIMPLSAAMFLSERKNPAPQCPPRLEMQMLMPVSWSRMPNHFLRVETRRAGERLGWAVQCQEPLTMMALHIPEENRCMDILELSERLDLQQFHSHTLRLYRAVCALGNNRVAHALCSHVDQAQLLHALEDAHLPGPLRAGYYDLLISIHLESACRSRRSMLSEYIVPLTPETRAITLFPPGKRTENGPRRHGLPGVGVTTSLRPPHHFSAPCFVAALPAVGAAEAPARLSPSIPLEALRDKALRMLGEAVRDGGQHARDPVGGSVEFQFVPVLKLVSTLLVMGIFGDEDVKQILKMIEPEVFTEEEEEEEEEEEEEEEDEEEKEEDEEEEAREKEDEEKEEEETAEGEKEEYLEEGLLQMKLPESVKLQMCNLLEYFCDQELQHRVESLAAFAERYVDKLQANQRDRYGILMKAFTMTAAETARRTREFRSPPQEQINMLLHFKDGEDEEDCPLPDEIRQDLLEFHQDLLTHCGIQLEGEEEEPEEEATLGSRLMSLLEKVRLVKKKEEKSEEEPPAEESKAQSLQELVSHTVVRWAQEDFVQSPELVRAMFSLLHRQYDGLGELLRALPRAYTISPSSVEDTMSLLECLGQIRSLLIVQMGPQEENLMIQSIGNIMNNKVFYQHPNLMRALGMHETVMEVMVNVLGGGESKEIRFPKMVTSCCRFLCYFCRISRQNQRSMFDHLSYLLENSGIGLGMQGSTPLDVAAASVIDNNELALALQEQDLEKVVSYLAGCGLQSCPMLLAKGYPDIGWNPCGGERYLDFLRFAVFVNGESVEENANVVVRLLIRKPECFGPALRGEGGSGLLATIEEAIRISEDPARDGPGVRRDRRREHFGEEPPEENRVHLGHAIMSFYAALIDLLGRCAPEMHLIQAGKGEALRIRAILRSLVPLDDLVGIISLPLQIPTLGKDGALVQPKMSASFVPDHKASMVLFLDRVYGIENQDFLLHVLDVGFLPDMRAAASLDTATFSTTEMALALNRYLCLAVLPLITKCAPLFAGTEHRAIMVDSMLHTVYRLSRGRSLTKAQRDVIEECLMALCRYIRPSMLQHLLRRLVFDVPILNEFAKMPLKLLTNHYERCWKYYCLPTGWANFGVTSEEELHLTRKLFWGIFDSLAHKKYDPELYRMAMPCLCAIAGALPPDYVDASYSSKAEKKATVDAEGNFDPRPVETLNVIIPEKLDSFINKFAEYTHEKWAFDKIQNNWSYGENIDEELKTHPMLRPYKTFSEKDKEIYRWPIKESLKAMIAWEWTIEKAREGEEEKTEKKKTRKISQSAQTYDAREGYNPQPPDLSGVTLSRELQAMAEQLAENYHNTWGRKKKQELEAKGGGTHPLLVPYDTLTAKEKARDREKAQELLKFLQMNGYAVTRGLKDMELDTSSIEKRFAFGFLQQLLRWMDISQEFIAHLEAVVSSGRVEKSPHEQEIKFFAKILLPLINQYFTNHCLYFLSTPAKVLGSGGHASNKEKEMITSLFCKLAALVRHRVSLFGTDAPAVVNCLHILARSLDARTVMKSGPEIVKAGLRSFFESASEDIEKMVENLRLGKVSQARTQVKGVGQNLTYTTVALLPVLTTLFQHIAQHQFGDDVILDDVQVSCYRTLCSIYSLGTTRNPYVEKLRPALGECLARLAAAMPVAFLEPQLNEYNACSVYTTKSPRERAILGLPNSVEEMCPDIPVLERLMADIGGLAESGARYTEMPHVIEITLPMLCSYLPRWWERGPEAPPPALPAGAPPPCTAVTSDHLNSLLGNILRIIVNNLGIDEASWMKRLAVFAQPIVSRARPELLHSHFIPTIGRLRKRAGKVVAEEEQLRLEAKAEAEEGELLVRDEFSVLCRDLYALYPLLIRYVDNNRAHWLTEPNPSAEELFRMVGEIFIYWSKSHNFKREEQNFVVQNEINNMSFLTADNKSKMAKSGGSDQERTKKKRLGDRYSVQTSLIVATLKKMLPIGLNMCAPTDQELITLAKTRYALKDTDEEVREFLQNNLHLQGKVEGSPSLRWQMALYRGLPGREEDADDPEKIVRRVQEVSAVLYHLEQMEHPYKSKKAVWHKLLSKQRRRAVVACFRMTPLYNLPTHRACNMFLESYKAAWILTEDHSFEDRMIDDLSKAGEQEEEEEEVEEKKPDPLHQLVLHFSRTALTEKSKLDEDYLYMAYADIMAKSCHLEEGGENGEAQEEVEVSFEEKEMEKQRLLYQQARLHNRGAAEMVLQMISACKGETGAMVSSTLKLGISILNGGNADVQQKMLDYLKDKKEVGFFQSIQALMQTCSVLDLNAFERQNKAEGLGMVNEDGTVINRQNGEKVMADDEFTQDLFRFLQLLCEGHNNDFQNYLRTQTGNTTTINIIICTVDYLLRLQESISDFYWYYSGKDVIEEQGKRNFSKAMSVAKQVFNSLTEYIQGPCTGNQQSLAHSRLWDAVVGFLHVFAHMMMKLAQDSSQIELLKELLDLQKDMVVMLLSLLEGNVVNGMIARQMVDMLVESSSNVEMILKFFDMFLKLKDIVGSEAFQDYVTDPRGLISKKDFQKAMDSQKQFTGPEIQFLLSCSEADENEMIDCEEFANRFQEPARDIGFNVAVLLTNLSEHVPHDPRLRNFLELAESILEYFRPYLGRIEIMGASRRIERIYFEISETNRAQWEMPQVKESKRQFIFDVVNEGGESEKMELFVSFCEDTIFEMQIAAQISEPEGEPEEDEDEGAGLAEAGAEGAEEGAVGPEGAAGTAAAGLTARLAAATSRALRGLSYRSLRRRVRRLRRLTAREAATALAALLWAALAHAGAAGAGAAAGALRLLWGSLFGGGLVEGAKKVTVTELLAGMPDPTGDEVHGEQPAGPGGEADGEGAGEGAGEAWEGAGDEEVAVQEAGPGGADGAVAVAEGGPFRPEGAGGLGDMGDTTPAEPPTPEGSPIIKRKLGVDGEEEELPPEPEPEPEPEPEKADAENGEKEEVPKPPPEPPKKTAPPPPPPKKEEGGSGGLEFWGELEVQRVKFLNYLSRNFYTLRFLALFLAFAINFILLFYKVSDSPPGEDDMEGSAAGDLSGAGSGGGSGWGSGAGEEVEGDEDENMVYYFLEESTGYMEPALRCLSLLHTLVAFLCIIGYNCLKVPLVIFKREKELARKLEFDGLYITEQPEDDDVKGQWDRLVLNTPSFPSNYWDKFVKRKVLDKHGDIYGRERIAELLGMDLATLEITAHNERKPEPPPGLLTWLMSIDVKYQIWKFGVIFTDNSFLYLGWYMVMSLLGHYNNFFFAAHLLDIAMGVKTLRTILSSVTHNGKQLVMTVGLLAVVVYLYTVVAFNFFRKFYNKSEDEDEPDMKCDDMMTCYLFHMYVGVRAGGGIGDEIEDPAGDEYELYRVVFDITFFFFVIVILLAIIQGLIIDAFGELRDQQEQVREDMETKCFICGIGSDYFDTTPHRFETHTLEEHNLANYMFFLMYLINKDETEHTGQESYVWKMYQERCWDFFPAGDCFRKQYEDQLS
# assay: [3H]ryanodine binding to skeletal SR (HSR) vesicles
# Format: biochemical, pig
# measurementContext: [Ca2+] 30 nM, Table S4; read-out: EC50, [3H]ryanodine binding, skeletal HSR
pEC50: −log10 of the molar value.
quantity: pEC50

1) O=C(c1ccc(Cl)cc1)N1CCN(c2ccc([N+](=O)[O-])c3ncccc23)CC1
7.70
2) CC(=O)O[C@H]1C[C@@]2(C)[C@@H](C[C@@H](O)[C@H]3[C@@]4(C)CC[C@@H](O)[C@@H](C)[C@@H]4CC[C@@]32C)/C1=C(\CCC=C(C)C)C(=O)O
8.00
3) CN(C)c1ccccc1CN1CCCN(Cc2ccccc2N(C)C)C1c1ccncc1
8.40
4) CSc1c(C)c(SC)n2ccncc12
8.30
